Where these numbers come from: ChEMBL document CHEMBL1201862

TEST_TARGET: UniProt:P49327
Sequence (P49327 whole entry): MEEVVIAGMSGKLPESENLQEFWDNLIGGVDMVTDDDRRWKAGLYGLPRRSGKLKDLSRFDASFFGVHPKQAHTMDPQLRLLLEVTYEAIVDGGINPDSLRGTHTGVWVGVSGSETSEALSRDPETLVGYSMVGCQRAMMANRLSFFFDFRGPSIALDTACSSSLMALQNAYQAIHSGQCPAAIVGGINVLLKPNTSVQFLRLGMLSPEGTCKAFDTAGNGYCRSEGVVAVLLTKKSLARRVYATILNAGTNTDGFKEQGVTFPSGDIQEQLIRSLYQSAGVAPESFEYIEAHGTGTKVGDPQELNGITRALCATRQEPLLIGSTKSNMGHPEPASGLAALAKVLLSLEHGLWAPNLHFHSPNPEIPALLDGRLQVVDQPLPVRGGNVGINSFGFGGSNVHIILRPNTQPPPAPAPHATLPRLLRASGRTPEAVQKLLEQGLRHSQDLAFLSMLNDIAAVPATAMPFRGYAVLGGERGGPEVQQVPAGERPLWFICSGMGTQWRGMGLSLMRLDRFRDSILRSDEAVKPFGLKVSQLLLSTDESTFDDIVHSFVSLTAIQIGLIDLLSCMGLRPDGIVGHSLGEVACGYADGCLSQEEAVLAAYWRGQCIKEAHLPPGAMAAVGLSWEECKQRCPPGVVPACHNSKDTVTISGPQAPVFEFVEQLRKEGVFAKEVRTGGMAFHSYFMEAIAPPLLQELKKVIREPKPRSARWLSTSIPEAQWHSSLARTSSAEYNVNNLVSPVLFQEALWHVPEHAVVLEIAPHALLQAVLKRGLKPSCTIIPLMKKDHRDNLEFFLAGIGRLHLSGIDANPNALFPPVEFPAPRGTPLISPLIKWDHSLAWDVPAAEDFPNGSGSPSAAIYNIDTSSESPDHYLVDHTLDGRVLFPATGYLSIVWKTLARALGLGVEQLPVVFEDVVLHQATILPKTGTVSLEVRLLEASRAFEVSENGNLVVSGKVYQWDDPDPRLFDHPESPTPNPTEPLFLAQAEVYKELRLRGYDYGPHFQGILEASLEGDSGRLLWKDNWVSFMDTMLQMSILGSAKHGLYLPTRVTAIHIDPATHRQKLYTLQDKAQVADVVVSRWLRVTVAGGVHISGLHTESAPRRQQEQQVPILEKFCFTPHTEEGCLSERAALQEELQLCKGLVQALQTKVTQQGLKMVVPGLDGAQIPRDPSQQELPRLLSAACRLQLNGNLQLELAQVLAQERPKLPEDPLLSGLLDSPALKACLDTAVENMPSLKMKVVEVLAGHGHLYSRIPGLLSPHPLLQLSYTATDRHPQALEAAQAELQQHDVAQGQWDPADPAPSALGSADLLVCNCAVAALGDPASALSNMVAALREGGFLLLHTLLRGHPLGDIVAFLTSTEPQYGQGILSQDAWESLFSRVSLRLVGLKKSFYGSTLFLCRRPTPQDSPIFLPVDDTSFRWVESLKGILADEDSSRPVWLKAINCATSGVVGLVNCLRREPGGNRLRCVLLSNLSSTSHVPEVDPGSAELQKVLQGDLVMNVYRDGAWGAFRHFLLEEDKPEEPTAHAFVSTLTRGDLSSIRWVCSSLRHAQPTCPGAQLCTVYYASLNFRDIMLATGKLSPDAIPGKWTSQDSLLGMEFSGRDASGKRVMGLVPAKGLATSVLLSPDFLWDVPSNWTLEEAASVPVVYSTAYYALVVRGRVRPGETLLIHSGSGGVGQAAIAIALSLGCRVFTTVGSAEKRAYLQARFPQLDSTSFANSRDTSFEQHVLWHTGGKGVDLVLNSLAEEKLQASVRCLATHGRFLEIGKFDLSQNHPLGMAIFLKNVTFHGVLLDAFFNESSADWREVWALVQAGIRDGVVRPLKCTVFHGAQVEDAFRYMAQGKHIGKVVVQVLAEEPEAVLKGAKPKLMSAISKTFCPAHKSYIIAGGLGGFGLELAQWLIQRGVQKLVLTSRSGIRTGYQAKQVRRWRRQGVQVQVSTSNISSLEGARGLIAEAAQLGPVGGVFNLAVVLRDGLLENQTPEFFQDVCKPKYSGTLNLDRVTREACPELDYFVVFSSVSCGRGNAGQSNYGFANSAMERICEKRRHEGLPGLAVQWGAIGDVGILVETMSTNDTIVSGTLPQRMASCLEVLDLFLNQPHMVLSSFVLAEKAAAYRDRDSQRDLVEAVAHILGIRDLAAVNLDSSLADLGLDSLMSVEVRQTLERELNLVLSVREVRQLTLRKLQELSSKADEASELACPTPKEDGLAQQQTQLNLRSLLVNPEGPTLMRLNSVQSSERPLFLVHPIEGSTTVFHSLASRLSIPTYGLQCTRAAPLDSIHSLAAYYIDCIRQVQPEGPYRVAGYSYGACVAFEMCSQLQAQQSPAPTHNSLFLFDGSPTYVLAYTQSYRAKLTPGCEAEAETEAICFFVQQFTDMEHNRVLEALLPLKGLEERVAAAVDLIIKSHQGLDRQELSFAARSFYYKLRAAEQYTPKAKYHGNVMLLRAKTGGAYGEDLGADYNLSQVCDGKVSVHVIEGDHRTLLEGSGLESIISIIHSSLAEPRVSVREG
TEST_DETAILS: inhibition of human FAS-TE enzyme activity – biochemical, kinetic fluorescence intensity, dose response (AID 624326);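 further: rate of fluorescence rise from hydrolysis of a fluorogenic O-methyl fluorescein ester substrate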
Type: functional
Active and inactive are the calls of the source.
In this section we review reported IC50 values for a set of compounds.

{"COMPOUND": "Cc1csc(N(C(=O)CCNC(=O)c2ccc([N+](=O)[O-])cc2)c2ccccc2)n1", "TEST_TARGET": "UniProt:P49327", "IC50": "4.74 µM (active)"}
{"COMPOUND": "CC(C)(C)c1ccc(C(=O)NCC(=O)OCc2ccc([N+](=O)[O-])cc2)cc1", "TEST_TARGET": "UniProt:P49327", "IC50": "1.69 µM (active)"}

Item: `CC(=O)N1CCN(c2ccccc2NC(=O)c2ccc(-c3cccc([N+](=O)[O-])c3)o2)CC1` Test system: UniProt:P49327 Read-out: IC50 Value: ?
12.1 µM (active)

Then what about the compound `COc1cccc(CNC(=O)COC(=O)c2cc([N+](=O)[O-])ccc2N2CCCC2)c1` ?
1.23 µM (active)

Then what about the compound `COC(=O)c1cc(C(=O)Nc2nnc(C3CC3)s2)cc([N+](=O)[O-])c1` ?
13.8 µM (active)

Then what about the compound `Cc1cc([N+](=O)[O-])nn1CC(=O)N/N=C/c1ccccc1Br` ?
7.28 µM (active)

----------
TEST_TARGET: Heat shock factor protein 1 (Mus musculus)
Sequence (P38532 whole entry): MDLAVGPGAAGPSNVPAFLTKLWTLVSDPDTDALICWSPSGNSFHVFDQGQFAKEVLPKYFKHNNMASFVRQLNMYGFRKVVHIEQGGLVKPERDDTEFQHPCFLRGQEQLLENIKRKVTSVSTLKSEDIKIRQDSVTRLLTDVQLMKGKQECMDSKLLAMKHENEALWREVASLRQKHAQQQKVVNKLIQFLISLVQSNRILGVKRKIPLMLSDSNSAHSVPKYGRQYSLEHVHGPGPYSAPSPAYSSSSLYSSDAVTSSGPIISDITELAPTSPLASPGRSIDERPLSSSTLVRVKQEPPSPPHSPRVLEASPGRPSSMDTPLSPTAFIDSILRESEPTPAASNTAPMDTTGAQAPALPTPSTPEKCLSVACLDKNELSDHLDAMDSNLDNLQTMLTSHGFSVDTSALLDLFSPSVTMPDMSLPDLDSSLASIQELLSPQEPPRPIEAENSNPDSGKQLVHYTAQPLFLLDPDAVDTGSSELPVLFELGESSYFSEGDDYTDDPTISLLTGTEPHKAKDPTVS
TEST_DETAILS: decrease of HSF1-responsive luciferase luminescence – cell-based, NIH3T3, dose retest, confirmation (AID 2382);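 further: NIH3T3 fibroblasts with HSF1-driven luciferase reporter stressed by proteasome inhibitor MG132; luminescence from HSF1-driven luciferase expression after 8 hours of MG132 stress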
Assay type: functional
Activity calls are given as the source filed them.
MEASURED_ATTRIBUTE: EC50

Solved entries (count: 5):
{"COMPOUND": "Cc1ccc(F)cc1NC(=O)CCNC(=O)c1ccc([N+](=O)[O-])cc1", "TEST_TARGET": "Heat shock factor protein 1 (Mus musculus)", "EC50": "> 195 µM (not active)"}
{"COMPOUND": "Cc1nc2ccccn2c1-c1ccnn1S(=O)(=O)c1ccc(F)cc1", "TEST_TARGET": "Heat shock factor protein 1 (Mus musculus)", "EC50": "> 195 µM (not active)"}
{"COMPOUND": "OC1CCN(Cc2cccc(Oc3ccccc3)c2)CC1", "TEST_TARGET": "Heat shock factor protein 1 (Mus musculus)", "EC50": "> 195 µM (not active)"}
{"COMPOUND": "CC(=O)Nc1cccc(-n2c(=O)n(Cc3ccccc3)c(=O)c3[nH]cnc32)c1", "TEST_TARGET": "Heat shock factor protein 1 (Mus musculus)", "EC50": "> 195 µM (not active)"}
{"COMPOUND": "O=C(O)c1csc(-c2ccccc2)n1", "TEST_TARGET": "Heat shock factor protein 1 (Mus musculus)", "EC50": "> 195 µM (not active)"}

Which EC50 is listed for `COc1ccc(-n2nc3ccccc3n2)cc1` ?
> 195 µM (not active)

Then what about the compound `CCCOc1ccc2cc(C(=O)NCc3ccccc3)c(=O)oc2c1` ?
42 µM (active)

Then what about the compound `CCCn1c(N)c(C(=O)CSc2nc3ccccc3c(=O)n2Cc2ccccc2)c(=O)[nH]c1=O` ?
> 195 µM (not active)

Then what about the compound `Cc1nn(-c2ccccc2)c(S)c1/C=N/c1cccc([N+](=O)[O-])c1` ?
> 195 µM (not active)

Then what about the compound `COc1ccc(OC)c(NC(=O)CSc2nc3ccccc3cc2Cc2ccccc2)c1` ?
> 195 µM (not active)

Then what about the compound `COC(=O)c1cn(NC(=O)CCC2CCCC2)c(=O)c2ccccc12` ?
> 195 µM (not active)

Then what about the compound `Cc1cccc(-c2ocnc2C(=O)N2CCN(C(=O)c3cccs3)CC2)c1` ?
> 195 µM (not active)

Then what about the compound `CCOC(=O)c1nnc(O)c2ccccc12` ?
> 195 µM (not active)

Then what about the compound `CCOC(=O)c1c(C)[nH]c(C(=O)OCC(=O)Nc2sccc2C(N)=O)c1C` ?
> 195 µM (not active)

Then what about the compound O=C(CCCC(=O)N(c1ccc2c(c1)OCCO2)C(C(=O)NC1CCCCC1)c1ccc(Cl)cc1)Nc1ccccn1 (stereo not given) ?
> 195 µM (not active)

Then what about the compound `CN(C)c1ccc(N=Nc2nc3ccccc3n2C)cc1` ?
0.429 µM (inconclusive)
